- Tested on: SNB-75 CNS
- experiment.summary: NCI tumour cell line growth inhibition, 48 h
Catalogue of compounds with associated TGI
endpoint: TGI

>>> df
                                    compound  target_entity     result
 0    CN1CCN(C2=CC(=O)c3c(O)ccc(O)c3C2=O)CC1     SNB-75 CNS    2.97 µM
 1  C=CC1=C(C)C2=NC1=CC1=NC(=C(CC)/C1=C\O)C=C1N=C3C(=C1C)C(=O)[C@H](C(=O)OC)C3=C1NC(=C2)[C@@H](C)[C@@H]1CCC(=O)O     SNB-75 CNS   > 100 µM
 2                Cc1ccc(NC(=O)CSC(N)=O)cc1C     SNB-75 CNS   > 100 µM
 3    CCC[C@@H]1C(=O)N=C(N)N1C(=O)OCc1ccccc1     SNB-75 CNS   > 100 µM
 4  Cn1cccc1/C=C/c1cc(Br)c(/C=C/c2cccn2C)cc1Br     SNB-75 CNS    16.5 µM
 5  O=S1Nc2c(Cl)cc(Cl)c(Cl)c2S1 (centres undefined)     SNB-75 CNS   > 100 µM
 6  COc1cc(NC(=O)C2=C(N3CCOCC3)/C(=C/c3ccc(Cl)cc3)CC2)cc(OC)c1OC     SNB-75 CNS    33.9 µM
 7           C=C(C)CNC(=S)N(N)c1ccc2ccccc2c1     SNB-75 CNS   > 100 µM
 8  COC(=O)C(C)NC(=O)c1ccccc1I(OS(=O)(=O)C(F)(F)F)c1ccccc1 (centres undefined)     SNB-75 CNS  > 87.8 µM
 9  COc1cc(CS(=O)c2ccc(O)cc2)cc(OC)c1OC (centres undefined)     SNB-75 CNS   > 100 µM
10        Cc1cc(I)cc(CN(C)CCCN2CCN(C)CC2)c1O     SNB-75 CNS   > 100 µM
11  O=C1/C(=C/c2ccc(Br)cc2)CCC/C1=C\c1ccc(Br)cc1     SNB-75 CNS    69.3 µM
12                 C/C=N\N1C(=O)c2ccccc2C1=O     SNB-75 CNS   > 100 µM
13  OC1C[C@H](c2ccccc2)C2(C(O)c3ccccc3C2O)[C@@H](c2ccccc2)C1 (some centres undefined)     SNB-75 CNS   > 100 µM
14     O=C(CCc1ccc(O)cc1)N/N=C/c1cc(Br)ccc1O     SNB-75 CNS   > 100 µM
15  O=C1C(Cl)=C(Nc2cccc(O)c2)C(=O)N1Cc1ccc(Cl)cc1Cl     SNB-75 CNS    20.6 µM
16  CCCC(=O)[O-].N.N.N.N.N.[Co+3].[O-][Cl+3]([O-])([O-])[O-]     SNB-75 CNS   > 100 µM
17  C=CC(COC(c1ccccc1)(c1ccccc1)c1ccccc1)N(CC)CC (centres undefined)     SNB-75 CNS    22.5 µM
18  CC(C)=CC(=O)Cc1nc2ccc([N+](=O)[O-])cc2[nH]c1=O     SNB-75 CNS   > 100 µM

Where do the numbers come from? From PubChem BioAssay (NCI).
